- Tested on: Osteoblasts (Calvarial cells)
- Test Method Notes: Cytotoxicity test (MTT)
- Test Settings: 1 μM compound, 72 hours, in comparison with vehicle control
Entries and their measured Cell viability (%) Calvarial cell follow.
Numbers only; they are read as %.

For orientation, consider the following solved cases.
O=[N+]([O-])c1ccc(NCc2ccncc2)nc1Nc1ccc(N2CCNCC2)c(F)c1 | 91
O=C(O)C1CCN(c2ccc(Nc3nc(NCCCN4CCOCC4)ccc3[N+](=O)[O-])cc2F)CC1 | 106
CC(=O)c1cccc(Nc2nc(N3CCN=C3C)ccc2[N+](=O)[O-])c1 | 91
CNc1ccc([N+](=O)[O-])c(Nc2ccc(N3CCNCC3)c(F)c2)n1 | 104

# input // lookup Cell viability (%) Calvarial cell for CCN(CCO)c1ccc([N+](=O)[O-])c(Nc2ccc(C#N)cc2)n1
# output 100

# input Recorded Cell viability (%) Calvarial cell for CC1CCCCN1c1ccc(Nc2nc(N3CCNCC3)ccc2[N+](=O)[O-])cc1F (centres unmarked) , please?
# output 107

# input Tell me the measured Cell viability (%) Calvarial cell of O=C(O)C1CCN(c2ccc(Nc3nc(N4CCC(O)CC4)ccc3[N+](=O)[O-])cc2F)CC1 , please.
# output 112

# input May I ask what Cell viability (%) Calvarial cell has been recorded for NC(=O)C1CCN(c2ccc(Nc3nc(NCc4ccncc4)ccc3[N+](=O)[O-])cc2F)CC1 ?
# output 108

###

- Tested on: Osteoblasts (Calvarial cells)
- Test Method Notes: Cytotoxicity test (MTT)
- Test Settings: 1 μM compound, 72 hours, in comparison with vehicle control
Readout: Cell viability (%) Calvarial cell
Give the value, in units of %, as a plain number.

NC(=O)C1CCCN(c2ccc(Nc3nc(N4CCNCC4)ccc3[N+](=O)[O-])cc2F)C1 (stereo not drawn) | 122
O=[N+]([O-])c1ccc(N2CCNCC2)nc1Nc1ccc(N2CCOCC2)c(F)c1 | 95
O=[N+]([O-])c1ccc(NCc2cccnc2)nc1Nc1ccc(N2CCSCC2)c(F)c1 | 99
CN1CCN(c2ccc([N+](=O)[O-])c(Nc3ccc(N4CCOCC4)c(F)c3)n2)CC1 | 107
CCN(CC)c1ccc(Nc2nc(NCc3cccnc3)ccc2[N+](=O)[O-])cc1F | 111

# input Kindly state the measured Cell viability (%) Calvarial cell obtained for CCN(CC)c1ccc(Nc2nc(-n3ccnc3C(C)C)ccc2[N+](=O)[O-])cc1F with Osteoblasts (Calvarial cells).
# output 100

# input Notebook entry, Osteoblasts (Calvarial cells) assay: Cell viability (%) Calvarial cell of CN1CCN(c2ccc([N+](=O)[O-])c(Nc3ccc(N4CCSCC4)c(F)c3)n2)CC1 = ?
# output 100

# input Requested read-out Cell viability (%) Calvarial cell, target or system Osteoblasts (Calvarial cells), entry CC(C)CNc1ccc([N+](=O)[O-])c(Nc2ccc(N3CCC(C(=O)O)CC3)c(F)c2)n1
# output 103

# input Item: CC1CCCCN1c1ccc(Nc2nc(NCCCn3ccnc3)ccc2[N+](=O)[O-])cc1F (stereo not drawn) Test system: Osteoblasts (Calvarial cells) Read-out: Cell viability (%) Calvarial cell Value: ?
# output 98

# input Kindly state the measured Cell viability (%) Calvarial cell obtained for CN(CC1OCCO1)c1ccc([N+](=O)[O-])c(Nc2ccc(N3CCOCC3)cc2)n1 with Osteoblasts (Calvarial cells).
# output 95

# input Request - read-out Cell viability (%) Calvarial cell | tested on Osteoblasts (Calvarial cells) | compound NC1CCN(c2ccc(Nc3nc(NCc4ccncc4)ccc3[N+](=O)[O-])cc2F)CC1
# output 101

# input Param readout= Cell viability (%) Calvarial cell; system= Osteoblasts (Calvarial cells); entry= CN1CCN(c2ccc([N+](=O)[O-])c(Nc3ccc(N4CCC(C(N)=O)CC4)c(F)c3)n2)CC1 ; returns value.
# output 106

###

- Test system: formation of osteoclasts in co-culture of bone marrow cells and osteoblasts
- Test Method Notes: Osteoclastogenesis inhibition via co-culture system (TRAP staining)
- Type: cell-based, mice
- Test Settings: Mus musculus, Osteoclast, 168 h; 1 μM compound, 7 days co-culture, TRAP-positive multinucleated osteoclasts vs vehicle control
Readout: inhibition at 1 µM

Please review the following examples before continuing.
Cc1ccc(Nc2nc(NCCc3cccnc3)ccc2[N+](=O)[O-])cc1 [Compound 10] | 64%
O=[N+]([O-])c1ccc(NCc2cccnc2)nc1Nc1ccc(N2CCOCC2)cc1 [Compound 115] | 89%

// switching to the query molecule
# input Give its inhibition at 1 µM value. Item: O=[N+]([O-])c1ccc(NCc2ccncc2)nc1Nc1ccc(-n2ccnc2)cc1 [Compound 94]
# output 93%

###

- System: Osteoblasts (Calvarial cells)
- Test Method Notes: Cytotoxicity test (MTT)
- Test Settings: 1 μM compound, 72 hours, in comparison with vehicle control
Readout: Cell viability (%) Calvarial cell
Reply numerically in %, unit not repeated.

CC(C)Nc1ccc([N+](=O)[O-])c(Nc2ccc(N3CCC(C(=O)O)CC3)c(F)c2)n1 | 99
NC1CCN(c2ccc(Nc3nc(NCc4cccnc4)ccc3[N+](=O)[O-])cc2F)CC1 | 101
CCN(CC)c1ccc(Nc2nc(N3CCOCC3)ccc2[N+](=O)[O-])cc1F | 110

# input Query: Cell viability (%) Calvarial cell; subject: CC1=NCCN1c1ccc([N+](=O)[O-])c(Nc2ccc(C)cc2)n1
# output 94

# input What does the data say about its Cell viability (%) Calvarial cell? Entry: CN1CCN(c2ccc([N+](=O)[O-])c(Nc3ccc(N4CCC(C(=O)O)CC4)c(F)c3)n2)CC1
# output 101

# input Data request, read-out Cell viability (%) Calvarial cell, for NC1CCN(c2ccc([N+](=O)[O-])c(Nc3ccc(N4CCCCC4)c(F)c3)n2)CC1
# output 94

# input What value of Cell viability (%) Calvarial cell has been reported for the following molecule? CCN(CC)c1ccc(Nc2nc(N3CCNCC3)ccc2[N+](=O)[O-])cc1F
# output 101

# input Using the record for CN1CCN(c2ccc([N+](=O)[O-])c(Nc3ccc(N4CCCC(CO)C4)c(F)c3)n2)CC1 (stereo not shown) , report its Cell viability (%) Calvarial cell.
# output 107

# input Item O=[N+]([O-])c1ccc(NCc2cccnc2)nc1Nc1ccc(N2CCCC(CO)C2)c(F)c1 (stereo not shown) has what recorded Cell viability (%) Calvarial cell?
# output 106

# input Could you tell me which Cell viability (%) Calvarial cell is on file for NC(=O)C1CCN(c2ccc(Nc3nc(NCCN4CCOCC4)ccc3[N+](=O)[O-])cc2F)CC1 ?
# output 118

# input Query (molecule): CC1=NCCN1c1ccc([N+](=O)[O-])c(Nc2ccc(N3CCC(N)CC3)c(F)c2)n1 ; field requested: Cell viability (%) Calvarial cell
# output 103

# input Cell viability (%) Calvarial cell lookup needed for CC1=NCCN1c1ccc([N+](=O)[O-])c(Nc2ccc(N3CCCCC3C)c(F)c2)n1 (stereo not shown) , thanks.
# output 121

# input Record request: Cell viability (%) Calvarial cell value, item CC1=NCCN1c1ccc([N+](=O)[O-])c(Nc2ccc(N3CCC(O)CC3)c(F)c2)n1
# output 97

# input What does the data say about its Cell viability (%) Calvarial cell? Entry: CC1CCCCN1c1ccc(Nc2nc(NCCN3CCOCC3)ccc2[N+](=O)[O-])cc1F (stereo not shown)
# output 115

# input If you can, please state the reported Cell viability (%) Calvarial cell value of O=[N+]([O-])c1ccc(N2CCOCC2)nc1Nc1ccc(N2CCCCC2)c(F)c1 .
# output 105

# input Reported Cell viability (%) Calvarial cell, molecule Nc1ccc(Nc2nc(NCCCN3CCOCC3)ccc2[N+](=O)[O-])cc1 : ____
# output 110

###

- System: Osteoblasts (Calvarial cells)
- Test Settings: ICR, mouse, 72 h, 1 μM
Readout: Cell viability (%) Calvarial cell
Dear colleague, please return just the value in %, with no unit written.

Worked cases, Cell viability (%) Calvarial cell given:
CC(=O)c1cccc(Nc2nc(NCc3ccncc3)ccc2[N+](=O)[O-])c1 | 93
N#Cc1ccc(Nc2nc(NCc3ccncc3)ccc2[N+](=O)[O-])cc1 | 115

# input Recorded Cell viability (%) Calvarial cell of CC(C)(C)Nc1ccc([N+](=O)[O-])c(Nc2cccc(N)c2)n1 , please.
# output 102

# input Entry under review: CN1CCN(c2ccc([N+](=O)[O-])c(Nc3ccc(N)cc3)n2)CC1 . Reported Cell viability (%) Calvarial cell?
# output 104

###

- Tested on: Osteoblasts (Calvarial cells)
- Test Settings: ICR, mouse, 72 h, 1 μM
Readout: Cell viability (%) Calvarial cell
Just the number please, in %, no unit attached.

CC(C)(C)c1ccc(Nc2nc(NCCc3ccccn3)ccc2[N+](=O)[O-])cc1 | 82
COc1ccc(Nc2nc(NCc3ccncc3)ccc2[N+](=O)[O-])cc1 | 92
CC(C)Nc1ccc([N+](=O)[O-])c(Nc2ccc(N3CCOCC3)cc2)n1 | 101
CC(C)(C)c1ccc(Nc2nc(N3CCNCC3)ccc2[N+](=O)[O-])cc1 | 103
CC(C)c1nccn1-c1ccc([N+](=O)[O-])c(Nc2cccc(N)c2)n1 | 103

# input Item under review: Cc1ccc(Nc2nc(NCCCn3ccnc3)ccc2[N+](=O)[O-])cc1 . Reported Cell viability (%) Calvarial cell?
# output 121

# input Need Cell viability (%) Calvarial cell of COc1ccc(Nc2nc(N3CCC(N)CC3)ccc2[N+](=O)[O-])cc1 , thanks.
# output 89

# input // Cell viability (%) Calvarial cell lookup, key: O=[N+]([O-])c1ccc(N2CCC(O)CC2)nc1Nc1ccc(-c2csc(C3CCCCC3)n2)cc1
# output 105
